Measured DC50, listed per entry for reference.
assaySystem: Human BCL-XL protein (N-terminal HiBiT tagged BCL-XL in HT1080 cells) (Homo sapiens)
Construct: expressed in transfected cells; host or cells: HT-1080 (ATCC CCL-121), stably transduced with lentivirus pLV-UBC-N-HiBiT-BCL-XL-PGK-puro and selected with puromycin
runDescription: HiBiT based degradation assay
Assay type: cell-based
experimentalParameters: BCL-XL degradation; HT1080 cells expressing HiBiT-BCL-XL; 24 h; read-out: EC50 (24 h)

Example cases with answers are listed next.
>  <molecule>
Cc1c(OCCC2CCN(CCC3CCN(c4ccc5c(C6CCC(=O)NC6=O)nn(C)c5c4)CC3)CC2)cccc1-c1ccc(N2CCc3cccc(C(=O)Nc4nc5ccccc5s4)c3C2)nc1C(=O)O (centres unmarked) [Compound 223]

>  <assaySystem>
Human BCL-XL protein (N-terminal HiBiT tagged BCL-XL in HT1080 cells) (Homo sapiens)

>  <DC50>
< 0.1 µM

$$$$
>  <molecule>
Cc1c(O[C@H]2CC[C@H](CC(F)(F)C(=O)N3CCN(c4ccc5c(C6CCC(=O)NC6=O)nn(C)c5c4)CC3)CC2)cccc1-c1ccc(N2CCc3cccc(C(=O)Nc4nc5ccccc5s4)c3C2)nc1C(=O)O (some centres unmarked) [Compound 239a]

>  <assaySystem>
Human BCL-XL protein (N-terminal HiBiT tagged BCL-XL in HT1080 cells) (Homo sapiens)

>  <DC50>
< 0.1 µM

$$$$
>  <molecule>
Cc1c(O[C@H]2CC[C@@H](CCC(=O)N3CCN(c4cccc5c(C6CCC(=O)NC6=O)nn(C)c45)CC3)CC2)cccc1-c1ccc(N2CCc3cccc(C(=O)Nc4nc5ccccc5s4)c3C2)nc1C(=O)O (some centres unmarked) [Compound 146b]

>  <assaySystem>
Human BCL-XL protein (N-terminal HiBiT tagged BCL-XL in HT1080 cells) (Homo sapiens)

>  <DC50>
0.1 to 1 µM

$$$$

Query: Please indicate DC50 recorded for Cc1c(CCCCN2CCN(CC(=O)Nc3ccc4c(C5CCC(=O)NC5=O)nn(C)c4c3)CC2)cccc1-c1ccc(N2CCc3cccc(C(=O)Nc4nc5ccccc5s4)c3C2)nc1C(=O)O (centres unmarked) [Compound 130]
Reply: < 0.1 µM

Query: Please indicate DC50 recorded for Cc1c(O[C@H]2CC[C@@H](CCCN3CCN(c4cccc5c(C6CCC(=O)NC6=O)nn(C)c45)CC3)CC2)cccc1-c1ccc(N2CCc3cccc(C(=O)Nc4nc5ccccc5s4)c3C2)nc1C(=O)O (some centres unmarked) [Compound 147b]
Reply: < 0.1 µM

====

assaySystem: Human BCL-XL protein (N-terminal HiBiT tagged BCL-XL in HT1080 cells) (Homo sapiens, UniProt Q07817)
Construct: expressed in transfected cells; host or cells: HT-1080 (ATCC CCL-121), stably transduced with lentivirus pLV-UBC-N-HiBiT-BCL-XL-PGK-puro and selected with puromycin
Sequence (Q07817 whole entry): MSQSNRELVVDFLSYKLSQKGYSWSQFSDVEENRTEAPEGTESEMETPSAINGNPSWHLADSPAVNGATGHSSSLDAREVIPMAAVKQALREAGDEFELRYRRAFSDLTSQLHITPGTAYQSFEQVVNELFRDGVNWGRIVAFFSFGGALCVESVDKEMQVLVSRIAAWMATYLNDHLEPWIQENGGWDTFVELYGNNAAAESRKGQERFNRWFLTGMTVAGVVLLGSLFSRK
runDescription: HiBiT based degradation assay
Type: cell-based
experimentalParameters: BCL-XL degradation normalized with DMSO control; HT1080 cells expressing HiBiT-BCL-XL; 6 h
measurementLabel: Ymin (6 h)

Example cases with answers are listed next.
>  <compound>
Cc1c(OCCCN2CCN(CC(=O)Nc3cccc4c(C5CCC(=O)NC5=O)nn(C)c34)CC2)cccc1-c1ccc(N2CCc3cccc(C(=O)Nc4nc5ccccc5s4)c3C2)nc1C(=O)O (stereo not shown)

>  <Ymin (6 h)>
B (50% ≤ Ymin < 70%)

$$$$
>  <compound>
Cc1c(Oc2ccc(CCCNc3ccc4c(C5CCC(=O)NC5=O)nn(C)c4c3)cc2)cccc1-c1ccc(N2CCc3cccc(C(=O)Nc4nc5ccccc5s4)c3C2)nc1C(=O)O (stereo not shown)

>  <Ymin (6 h)>
C (Ymin ≥ 70%)

$$$$
>  <compound>
Cc1c(OCCC2CCN(CC(=O)N3CCN(c4cccc5c(C6CCC(=O)NC6=O)nn(C)c45)CC3)CC2)cccc1-c1ccc(N2CCc3cccc(C(=O)Nc4nc5ccccc5s4)c3C2)nc1C(=O)O (stereo not shown)

>  <Ymin (6 h)>
B (50% ≤ Ymin < 70%)

$$$$
>  <compound>
Cc1c(OCCOC2CCN(CC(=O)Nc3ccc4c(C5CCC(=O)NC5=O)nn(C)c4c3)CC2)cccc1-c1ccc(N2CCc3cccc(C(=O)Nc4nc5ccccc5s4)c3C2)nc1C(=O)O (stereo not shown)

>  <Ymin (6 h)>
B (50% ≤ Ymin < 70%)

$$$$
>  <compound>
Cc1c(O[C@@H](C)CCC2CCN(CC(=O)Nc3ccc4c(C5CCC(=O)NC5=O)nn(C)c4c3)CC2)cccc1-c1ccc(N2CCc3cccc(C(=O)Nc4nc5ccccc5s4)c3C2)nc1C(=O)O (stereo partly shown) [Compound 162a]

>  <Ymin (6 h)>
B (50% ≤ Ymin < 70%)

$$$$
>  <compound>
Cc1c(OCC[C@H]2CCN(CC(=O)Nc3ccc4c(C5CCC(=O)NC5=O)nn(C)c4c3)C2)cccc1-c1ccc(N2CCc3cccc(C(=O)Nc4nc5ccccc5s4)c3C2)nc1C(=O)O (stereo partly shown) [Compound 219b]

>  <Ymin (6 h)>
B (50% ≤ Ymin < 70%)

$$$$

Query: Please indicate Ymin (6 h) recorded for Cc1c(O[C@H]2CC[C@H](CCC(=O)N3CCN(c4cccc5c(C6CCC(=O)NC6=O)nn(C)c45)CC3)CC2)cccc1-c1ccc(N2CCc3cccc(C(=O)Nc4nc5ccccc5s4)c3C2)nc1C(=O)O (stereo partly shown) [Compound 146a]
Reply: A (Ymin < 50%)

Query: Please indicate Ymin (6 h) recorded for Cc1c(O[C@H]2CC[C@H](CCCN3CCN(c4cccc5c(C6CCC(=O)NC6=O)nn(C)c45)CC3)CC2)cccc1-c1ccc(N2CCc3cccc(C(=O)Nc4nc5ccccc5s4)c3C2)nc1C(=O)O (stereo partly shown) [Compound 147a]
Reply: B (50% ≤ Ymin < 70%)

Query: Please indicate Ymin (6 h) recorded for Cc1c(OCCCC2CCN(CC(=O)Nc3cccc4c(C5CCC(=O)NC5=O)nn(C)c34)CC2)cccc1-c1ccc(N2CCc3cccc(C(=O)Nc4nc5ccccc5s4)c3C2)nc1C(=O)O (stereo not shown)
Reply: C (Ymin ≥ 70%)

Query: Please indicate Ymin (6 h) recorded for Cc1c(-c2ccc(N3CCc4cccc(C(=O)Nc5nc6ccccc6s5)c4C3)nc2C(=O)NCCCCCCCCCC(=O)Nc2ccc3c(C4CCC(=O)NC4=O)nn(C)c3c2)cnn1CC12CC3CC(CC(C3)C1)C2 (stereo not shown)
Reply: B (50% ≤ Ymin < 70%)

Query: Please indicate Ymin (6 h) recorded for Cc1c(OCCCN2CCC(CC(=O)Nc3ccc4c(C5CCC(=O)NC5=O)nn(C)c4c3)CC2)cccc1-c1ccc(N2CCc3cccc(C(=O)Nc4nc5ccccc5s4)c3C2)nc1C(=O)O (stereo not shown)
Reply: B (50% ≤ Ymin < 70%)

Query: Please indicate Ymin (6 h) recorded for Cc1c(Oc2ccc(CCC(=O)Nc3ccc4c(C5CCC(=O)NC5=O)nn(C)c4c3)cc2)cccc1-c1ccc(N2CCc3cccc(C(=O)Nc4nc5ccccc5s4)c3C2)nc1C(=O)O (stereo not shown)
Reply: C (Ymin ≥ 70%)

Query: Please indicate Ymin (6 h) recorded for Cc1c(OCCCCCCCCN2CCN(c3cccc4c(C5CCC(=O)NC5=O)nn(C)c34)CC2)cccc1-c1ccc(N2CCc3cccc(C(=O)Nc4nc5ccccc5s4)c3C2)nc1C(=O)O (stereo not shown)
Reply: B (50% ≤ Ymin < 70%)

Query: Please indicate Ymin (6 h) recorded for Cc1c(OCCCCC2CCN(CC(=O)Nc3cccc4c(C5CCC(=O)NC5=O)nn(C)c34)CC2)cccc1-c1ccc(N2CCc3cccc(C(=O)Nc4nc5ccccc5s4)c3C2)nc1C(=O)O (stereo not shown)
Reply: C (Ymin ≥ 70%)

Query: Please indicate Ymin (6 h) recorded for Cc1c(OCCN2C[C@@H](C)N(CC(=O)Nc3ccc4c(C5CCC(=O)NC5=O)nn(C)c4c3)[C@@H](C)C2)cccc1-c1ccc(N2CCc3cccc(C(=O)Nc4nc5ccccc5s4)c3C2)nc1C(=O)O (stereo partly shown) [Compound 159a]
Reply: B (50% ≤ Ymin < 70%)

Query: Please indicate Ymin (6 h) recorded for Cc1c(OCCC[C@H]2CCCN(CC(=O)Nc3cccc4c(C5CCC(=O)NC5=O)nn(C)c34)C2)cccc1-c1ccc(N2CCc3cccc(C(=O)Nc4nc5ccccc5s4)c3C2)nc1C(=O)O (single isomer, unassigned) [Compound 210b]
Reply: C (Ymin ≥ 70%)

Query: Please indicate Ymin (6 h) recorded for Cc1c(Oc2ccccc2CCCC(=O)Nc2ccc3c(C4CCC(=O)NC4=O)nn(C)c3c2)cccc1-c1ccc(N2CCc3cccc(C(=O)Nc4nc5ccccc5s4)c3C2)nc1C(=O)O (stereo not shown)
Reply: C (Ymin ≥ 70%)

Query: Please indicate Ymin (6 h) recorded for Cc1c(CCCCN2CCN(CC(=O)Nc3ccc4c(C5CCC(=O)NC5=O)nn(C)c4c3)CC2)cccc1-c1ccc(N2CCc3cccc(C(=O)Nc4nc5ccccc5s4)c3C2)nc1C(=O)O (stereo not shown)
Reply: A (Ymin < 50%)

Query: Please indicate Ymin (6 h) recorded for Cc1c(OCCCC2CCN(CC(=O)Nc3ccc4c(C5CCC(=O)NC5=O)nn(C)c4c3)CC2)cccc1-c1ccc(N2CCc3cccc(C(=O)Nc4nc5ccccc5s4)c3C2)nc1C(=O)O (stereo not shown)
Reply: A (Ymin < 50%)
